Data origin: the PETadex activity labels (doi:10.1016/j.ijbiomac.2025.149745)

Substrate: PEF
experiment-notes: Proxy for plastic degradation [kcat] (s⁻¹)
experimental-parameters: pH 9
value-kind: Proxy for plastic degradation

protein	Proxy for plastic degradation
unnamed (protein) MNFPRASRLMQAAVLGGLMAVSAAATAQTNPYARGPNPTAASLEASAGPFTVRSFTVSRPSGYGAGTVYYPTNAGGTVGAIAIVPGYTARQSSIKWWGPRLASHGFVVITIDTNSTLDQPSSRSSQQMAALRQVASLNGTSSSPIYGKVDTARMGVMGHSMGGGGSLISAANNPSLKAAAPQAPWDSSTNFSSVTVPTLIFACENDSIAPVNSSALPIYDSMSRNAKQFLEINGGSHSCANSGNSNQALIGKKGVAWMKRFMDNDTRYSTFACENPNSTRVSDFRTANCS	0.17

Record request: Proxy for plastic degradation value, item unnamed (protein) MDGVLWRVRTAALMAALLALAAWALWASPSVEAQSNPYQRGPNPTRSALTADGPFSVATYTVSRLSVSGFGGVIYYPTGTSLTFGGIAMSPGYTADASSLAWLGRRLASHGFVVLVINTNSRFDYPDSRASQLSAALNYLRTSSPSAVRARLDANRLAVAGHSMGGGGTLRIAEQNPSLKAAVPLTPWHTDKTFNTSVPVLIVGCEADTVAPVSQHAIPFYQNLPSTTPKVYVELDNASHSCPNSNNAAISVYTISWMKLWVDNDTRYRQFLCNVNDPALSDFRTNNRHCQCQ 0.115
